What koff was measured for each of the following?
# testedSystem: T1, recombinant human CSF-1R (form not stated) (human, UniProt P07333 20-512, limits assumed)
# T1 construct: for the ELISA no species is stated; also called recombinant CSF-1R; recombinant CSF-1R protein
# T1 sequence (P07333 20-512 limits assumed): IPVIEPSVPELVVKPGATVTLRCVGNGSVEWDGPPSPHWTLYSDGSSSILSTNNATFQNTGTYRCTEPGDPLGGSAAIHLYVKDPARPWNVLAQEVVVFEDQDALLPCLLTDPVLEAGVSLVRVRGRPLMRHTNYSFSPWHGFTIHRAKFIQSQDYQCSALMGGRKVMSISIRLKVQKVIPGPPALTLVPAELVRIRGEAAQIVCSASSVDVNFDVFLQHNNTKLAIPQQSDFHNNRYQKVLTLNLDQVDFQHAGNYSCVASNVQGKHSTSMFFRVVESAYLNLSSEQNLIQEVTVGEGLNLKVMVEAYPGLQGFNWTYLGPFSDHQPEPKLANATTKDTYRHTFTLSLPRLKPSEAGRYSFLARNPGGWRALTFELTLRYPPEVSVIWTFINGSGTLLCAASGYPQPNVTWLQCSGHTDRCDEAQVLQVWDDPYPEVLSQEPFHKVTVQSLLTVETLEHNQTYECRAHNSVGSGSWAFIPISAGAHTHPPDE
# experimentalProtocol: BIAcore, experiment 2 of 3
One number for each entry, in s⁻¹.

1. chimeric antibody 969 (rat variable regions, human gamma-4 heavy chain constant region and human kappa chain constant region) (antibody, human IgG4, V domains shown, Alexa-488 label in the cell-based affinity assay; not carried by the letters., Full-length human IgG4 (S241P)/kappa chimeric; also called Ab969) VH: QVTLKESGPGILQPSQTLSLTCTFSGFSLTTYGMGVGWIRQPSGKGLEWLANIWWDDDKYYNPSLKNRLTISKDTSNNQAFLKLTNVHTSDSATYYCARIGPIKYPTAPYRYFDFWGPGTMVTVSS VL: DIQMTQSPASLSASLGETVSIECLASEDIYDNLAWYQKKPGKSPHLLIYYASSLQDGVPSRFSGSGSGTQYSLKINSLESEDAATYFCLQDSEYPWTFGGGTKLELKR	1.1e-05

The reported koff of the binder 969gH2gL1 (antibody, human IgG4 S228P, kappa, name in Kabat numbering, V domains shown, Humanised IgG4 (S241P)/kappa; positions are Kabat; also called Ab969.g6) VH: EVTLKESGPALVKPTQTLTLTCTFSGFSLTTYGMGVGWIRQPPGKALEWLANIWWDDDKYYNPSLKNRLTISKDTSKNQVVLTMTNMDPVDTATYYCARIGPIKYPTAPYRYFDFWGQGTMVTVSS VL: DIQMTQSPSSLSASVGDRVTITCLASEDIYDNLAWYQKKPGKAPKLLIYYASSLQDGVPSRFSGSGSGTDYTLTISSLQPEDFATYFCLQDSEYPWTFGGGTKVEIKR was 8.95e-06
